The reported measurements were obtained from paper PMC10132805.

Target: N-terminal domain of clathrin (CLTC NTD) (human) (UniProt Q00610)
Sequence (Q00610 whole entry, the tested form may be a part): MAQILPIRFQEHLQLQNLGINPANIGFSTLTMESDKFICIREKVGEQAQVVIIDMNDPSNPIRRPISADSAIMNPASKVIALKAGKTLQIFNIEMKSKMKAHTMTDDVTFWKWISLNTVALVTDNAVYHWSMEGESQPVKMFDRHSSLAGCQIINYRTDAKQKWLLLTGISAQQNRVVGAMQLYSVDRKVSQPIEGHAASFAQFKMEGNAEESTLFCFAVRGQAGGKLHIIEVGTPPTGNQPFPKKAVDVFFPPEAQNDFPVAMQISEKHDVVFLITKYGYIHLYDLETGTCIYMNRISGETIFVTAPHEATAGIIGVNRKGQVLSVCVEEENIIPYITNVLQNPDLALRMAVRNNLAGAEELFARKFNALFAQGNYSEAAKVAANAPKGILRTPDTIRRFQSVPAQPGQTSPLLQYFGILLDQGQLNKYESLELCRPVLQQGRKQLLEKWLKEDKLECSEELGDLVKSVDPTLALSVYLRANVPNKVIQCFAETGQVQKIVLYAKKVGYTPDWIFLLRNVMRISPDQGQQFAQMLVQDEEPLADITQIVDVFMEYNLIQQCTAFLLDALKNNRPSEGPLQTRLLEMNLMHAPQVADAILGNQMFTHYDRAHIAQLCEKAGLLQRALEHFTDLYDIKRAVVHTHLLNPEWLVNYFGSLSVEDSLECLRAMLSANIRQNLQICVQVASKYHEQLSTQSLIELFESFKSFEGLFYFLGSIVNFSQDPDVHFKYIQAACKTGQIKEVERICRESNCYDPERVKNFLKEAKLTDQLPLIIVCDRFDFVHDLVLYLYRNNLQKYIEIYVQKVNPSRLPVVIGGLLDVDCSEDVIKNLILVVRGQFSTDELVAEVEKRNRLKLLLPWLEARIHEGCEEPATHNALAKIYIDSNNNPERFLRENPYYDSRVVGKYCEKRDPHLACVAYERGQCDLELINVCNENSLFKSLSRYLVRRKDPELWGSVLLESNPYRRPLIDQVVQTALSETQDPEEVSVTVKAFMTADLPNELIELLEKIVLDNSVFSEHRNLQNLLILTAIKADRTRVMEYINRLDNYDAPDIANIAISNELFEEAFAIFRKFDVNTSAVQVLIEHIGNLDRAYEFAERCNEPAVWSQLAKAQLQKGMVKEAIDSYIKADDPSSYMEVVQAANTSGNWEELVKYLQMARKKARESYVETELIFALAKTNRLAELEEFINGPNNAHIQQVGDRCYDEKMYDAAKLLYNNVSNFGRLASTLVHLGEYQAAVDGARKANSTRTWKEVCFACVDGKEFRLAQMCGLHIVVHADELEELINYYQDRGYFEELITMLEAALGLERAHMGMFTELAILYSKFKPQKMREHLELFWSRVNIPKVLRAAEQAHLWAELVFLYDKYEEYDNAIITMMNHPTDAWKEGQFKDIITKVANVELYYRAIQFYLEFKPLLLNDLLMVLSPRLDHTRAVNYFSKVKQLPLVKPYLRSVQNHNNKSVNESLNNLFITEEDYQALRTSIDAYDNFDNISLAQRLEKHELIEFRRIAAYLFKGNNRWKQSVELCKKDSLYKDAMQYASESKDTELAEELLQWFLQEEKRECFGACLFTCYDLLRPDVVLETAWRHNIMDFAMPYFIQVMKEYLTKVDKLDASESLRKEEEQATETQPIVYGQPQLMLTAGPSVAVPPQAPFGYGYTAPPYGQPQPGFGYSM
endpoint_name: Kd
Output should be the measured figure followed by the unit it is expressed in.

{"binder": "VPVDTNLIEFDTNYAT [ARRB2 367-382 (Human)]", "Kd": "40 µM"}

Attention now turns to another entry.
Challenge: For GDLLGDLLNLDLGPPVY [AP1B1 626-641 (Human)] , what is its reported Kd?
Response given: 300 µM
